Biological target: human chemokine receptor CXCR7 (Homo sapiens (Human))
Test: Tango CXCR7-bla U2OS beta-arrestin recruitment assay (beta-lactamase reporter, FRET), antagonism of CXCL12/SDF1-α
Assay type: cell-based
Details: antagonistic effect on CXCR7; Tango CXCR7-bla U2OS cells, CXCL12/SDF1-α at its EC80
Form field: IC50 (one value per entry).
Provide only the numeric value, understood in nM.

Some solved entries appear below for comparison.
>>> quantitative_readout("O=C(N[C@H]1CCN(CC2CC2)C[C@@H]1C(=O)NC1(c2cncnc2)CC1)c1cc(-c2ccc(F)cc2F)on1")
426
>>> quantitative_readout("CN(C)C(=O)[C@@H]1CN(C2CCCCC2)CC[C@H]1NC(=O)c1cc(-c2c(F)cc(F)cc2F)on1 (racemic)")
38
>>> quantitative_readout("O=C(N[C@@H]1CCN(CC2CC2)C[C@H]1C(=O)NC1(c2ccccn2)CC1)c1cc(-c2ccc(F)cc2)on1 (racemic)")
158
>>> quantitative_readout("CCNC(=O)[C@@H]1CN(C2CCCCC2)CC[C@H]1NC(=O)c1cc(-c2ccc(F)cc2F)on1 (racemic)")
58
>>> quantitative_readout("O=C(N[C@@H]1CCN(CC2CC2)C[C@H]1C(=O)NC1(c2ncccn2)CC1)c1cc(-c2cccc(C(F)(F)F)c2)on1 (racemic) [Example 1.193]")
191

[ask] Give its IC50 value. Item: O=C(NC1CCN(C2CCCC2)CC1C(=O)NC1(c2cccc[n+]2[O-])CC1)c1cc(-c2ccc(F)cc2F)on1 (centres unmarked)
[reply] 23

[ask] Now this one: O=C(N[C@@H]1CCN(CC2CC2)C[C@H]1C(=O)NC1(c2ncccn2)CC1)c1cc(-c2ccc(Cl)cc2Cl)on1 (racemic)
[reply] 36

[ask] Now this one: CN(C)C(=O)[C@@H]1CN(CC2CC2)CC[C@H]1NC(=O)c1cc(-c2c(F)cc(F)cc2F)on1
[reply] 128

[ask] Now this one: COc1ccccc1C1(NC(=O)[C@H]2CN(CC3CC3)CC[C@@H]2NC(=O)c2cc(-c3ccc(F)cc3F)on2)CC1
[reply] 27

[ask] Now this one: C[C@@H](NC(=O)[C@@H]1CN(C2CCCC2)CC[C@H]1NC(=O)c1cc(-c2ccc(F)cc2F)no1)C1CCC1 (relative stereo)
[reply] 379

[ask] Now this one: O=C(N[C@H]1CCN(C2CCC2)C[C@@H]1C(=O)NC1(c2cccc(Cl)c2)COC1)c1cc(-c2ccc(F)cc2F)on1
[reply] 80

[ask] Now this one: O=C(N[C@@H]1CCN(C2CCCCC2)C[C@H]1C(=O)NCc1cnco1)c1cc(-c2ccc(F)cc2F)on1 (racemic)
[reply] 520

[ask] Now this one: O=C(N[C@@H]1CCN(C2CCCC2)C[C@H]1C(=O)NC1(c2cccc[n+]2[O-])CC1)c1cc(-c2ccc(F)cc2F)on1 [Example 2.062a]
[reply] 298

[ask] Now this one: CN(CCc1ccccn1)C(=O)[C@@H]1CN(CC2CC2)CC[C@H]1NC(=O)c1cc(-c2ccc(F)cc2F)on1
[reply] 38

[ask] Now this one: C[C@@H](NC(=O)[C@@H]1CN(C2CCCCC2)CC[C@H]1NC(=O)c1noc(-c2ccc(F)cc2F)n1)c1cnccn1
[reply] 526

[ask] Now this one: CCN1CC[C@H](NC(=O)c2nnc(-c3ccc(F)cc3F)s2)[C@@H](C(=O)NC2(c3ncccn3)CC2)C1
[reply] 114

[ask] Now this one: CN(CCc1ccccc1)C(=O)[C@@H]1CN(C2CCCC2)CC[C@H]1NC(=O)c1cc(-c2ccc(F)cc2F)on1
[reply] 25

[ask] Now this one: COCC(C)(C)NC(=O)[C@@H]1CN(C2CCCC2)CC[C@H]1NC(=O)c1cc(-c2c(F)cc(F)cc2F)on1 (racemic)
[reply] 227

[ask] Now this one: CN(C)C(=O)[C@@H]1CN(Cc2ccccc2Cl)CC[C@H]1NC(=O)c1cc(-c2ccc(F)cc2F)on1
[reply] 342

====

Target: human chemokine receptor CXCR7 (Homo sapiens (Human))
Test: Tango CXCR7-bla U2OS beta-arrestin recruitment assay (beta-lactamase reporter, FRET), antagonism of CXCL12/SDF1-α
Assay type: cell-based
Settings: antagonistic effect on CXCR7; Tango CXCR7-bla U2OS cells, CXCL12/SDF1-α at its EC80
measure: IC50 (nM)
Provide only the numeric value, understood in nM.

Some solved entries appear below for comparison.
>>> quantitative_readout("C[C@@H](NC(=O)[C@@H]1CN(CC2CC2)CC[C@H]1NC(=O)c1cc(-c2c(F)cc(F)cc2F)on1)c1cnccn1 (relative stereo) [Example 1.131]")
102
>>> quantitative_readout("O=C(N[C@@H]1CCN(C2CCCCC2)C[C@H]1C(=O)NC[C@@H](O)c1ccccc1)c1cc(-c2ccc(F)cc2F)on1 (relative stereo) [Example 1.073]")
118

Lab note: next compound to report on.
[ask] Give its IC50 value. Item: C[C@@H](NC(=O)[C@H]1CN(C2CCC2)CC[C@@H]1NC(=O)c1cc(-c2ccc(F)cc2F)on1)c1ncccc1F [Example 4.098]
[reply] 18

====

Form field: IC50 (one value per entry).
Target: human chemokine receptor CXCR7 (Homo sapiens (Human), UniProt P25106)
Sequence (P25106 whole entry): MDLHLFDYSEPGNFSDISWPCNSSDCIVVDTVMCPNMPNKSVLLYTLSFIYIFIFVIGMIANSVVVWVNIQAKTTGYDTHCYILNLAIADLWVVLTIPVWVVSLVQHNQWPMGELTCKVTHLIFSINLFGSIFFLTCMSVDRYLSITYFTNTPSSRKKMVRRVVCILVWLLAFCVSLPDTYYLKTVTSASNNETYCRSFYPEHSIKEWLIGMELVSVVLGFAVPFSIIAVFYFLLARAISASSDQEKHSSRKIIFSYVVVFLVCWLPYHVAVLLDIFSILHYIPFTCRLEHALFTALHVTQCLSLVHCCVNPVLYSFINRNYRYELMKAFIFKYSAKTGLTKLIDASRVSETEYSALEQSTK
Assay: Tango CXCR7-bla U2OS beta-arrestin recruitment assay (beta-lactamase reporter, FRET), antagonism of CXCL12/SDF1-α
Type: cell-based
Conditions: antagonistic effect on CXCR7; Tango CXCR7-bla U2OS cells, CXCL12/SDF1-α at its EC80
I'd appreciate it if you wrote the number followed by its unit.

Some solved entries appear below for comparison.
>>> result("C[C@@H](NC(=O)[C@@H]1CN(C2CCCC2)CC[C@H]1NC(=O)c1cc(-c2c(F)cc(F)cc2F)on1)c1ccccn1 (relative stereo) [Example 1.122]")
"10 nM"
>>> result("O=C(N[C@@H]1CCN(CC2CC2)C[C@H]1C(=O)NC1(c2ccc(F)cn2)CC1)c1cc(-c2c(F)cc(F)cc2F)on1 (racemic) [Example 1.144]")
"178 nM"

Lab note: next compound to report on.
[ask] Give its IC50 value. Item: CN(C)C(=O)[C@@H]1CN(CC2CCCC2)CC[C@H]1NC(=O)c1cc(-c2ccc(F)cc2F)on1 [Example 2.03]
[reply] 74 nM

====

Molecular target: human chemokine receptor CXCR7 (Homo sapiens (Human), UniProt P25106)
Test: Tango CXCR7-bla U2OS beta-arrestin recruitment assay (beta-lactamase reporter, FRET), antagonism of CXCL12/SDF1-α;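 further: compounds preincubated 15 min before CXCL12 addition, then 22 h at 37 °C, FRET emission ratio read with CCF4-AM substrate after 2 h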
Type: cell-based
Details: antagonistic effect on CXCR7; Tango CXCR7-bla U2OS cells, CXCL12/SDF1-α at its EC80
measure: IC50 (nM)
Provide only the numeric value, understood in nM.

>>> quantitative_readout("O=C(N[C@@H]1CCN(C2CCCCC2)C[C@H]1C(=O)N1CC(F)(F)C1)c1cc(-c2ccc(F)cc2F)on1 (racemic) [Example 1.052]")
630
>>> quantitative_readout("CC(C)(NC(=O)[C@H]1CN(CC2CC2)CC[C@@H]1NC(=O)c1cc(-c2ccc(F)cc2F)on1)c1ncccn1 [Example 4.102]")
1
>>> quantitative_readout("CC(NC(=O)[C@H]1CN(C2CCCC2)CC[C@@H]1NC(=O)c1cc(-c2ccc(F)cc2F)on1)c1ccn[nH]1 (stereo partly shown) [Example 4.041]")
96

[ask] Give its IC50 value. Item: C[C@@H]1CCC[C@H]1N1CC[C@@H](NC(=O)c2cc(-c3ccc(F)cc3F)no2)[C@H](C(=O)NC2(c3ccccn3)CC2)C1 (relative stereo) [Example 1.175]
[reply] 673

[ask] Now this one: O=C(N[C@@H]1CCN(C2CCCC2)C[C@H]1C(=O)NC1(c2ccccn2)CC1)c1cn(-c2ccc(F)cc2F)nn1 (racemic) [Example 1.166]
[reply] 52

[ask] Now this one: O=C(N[C@H]1CCN(CC2CC2)C[C@@H]1C(=O)NC1(c2ncccn2)CC1)c1noc(-c2ccc(F)cc2F)n1 [Example 7.008]
[reply] 51

[ask] Now this one: O=C(N[C@@H]1CCN(C2CCCCC2)C[C@H]1C(=O)NC1(c2ccc(F)cn2)CC1)c1cc(-c2c(F)cc(F)cc2F)on1 (racemic) [Example 1.143]
[reply] 719

[ask] Now this one: C[C@@H](NC(=O)[C@@H]1CN(C2CCCCC2)CC[C@H]1NC(=O)c1cc(-c2ccc(F)cc2F)no1)c1ccccn1 (relative stereo) [Example 1.125]
[reply] 81

[ask] Now this one: CCN(CC)C(=O)[C@H]1CN(CC2CC2)CC[C@@H]1NC(=O)c1cc(-c2ccc(F)cc2F)on1 [Example 4.066]
[reply] 320

[ask] Now this one: C[C@@H](NC(=O)[C@H]1CN(CC2CC2)CC[C@@H]1NC(=O)c1cc(-c2ccc(F)cc2F)on1)c1cccnc1 [Example 4.024]
[reply] 56
